Listed below: pEC50 values for each entry.
Test system: M. tuberculosis H37Rv-GFP
Format: cell-based, Mycobacterium tuberculosis
Test Settings: potentiation of ethionamide; ETH 0.1 μg/ml; […]; 5 days at 37° C.; […]; read-out: EC50_H37Rv
pEC50: −log10 of the molar value.

*Q* // returns reported pEC50 for input O=C(CCC(F)(F)F)N1CC(c2ccncc2)C1
*A* 5.00 to 6.00

*Q* // returns reported pEC50 for input O=C(CCC(F)(F)F)N1CC(c2cncc(C(F)(F)F)c2)C1
*A* 5.00 to 6.00

*Q* // returns reported pEC50 for input COc1ccc(C2CN(C(=O)CCC(F)(F)F)C2)cn1
*A* > 7.30

Further cases:
*Q* // returns reported pEC50 for input O=C(CCC(F)(F)F)N1CC(C2CCCCC2)C1
*A* > 7.30

*Q* // returns reported pEC50 for input O=C(CCC(F)(F)F)N1CC(c2ccnc(F)c2)C1
*A* 6.00 to 6.30

*Q* // returns reported pEC50 for input O=C(CCC(F)(F)F)N1CC(c2ncc(F)cc2F)C1
*A* > 7.30

*Q* // returns reported pEC50 for input O=C(CCC(F)(F)F)N1CC(C2CCC(F)(F)CC2)C1
*A* 6.60 to 7.30

*Q* // returns reported pEC50 for input O=C(CCC(F)(F)F)N1CC(C2CCCC2)C1
*A* > 7.30

*Q* // returns reported pEC50 for input O=C(CCC(F)(F)F)N1CC(c2ccnc(Cl)c2)C1
*A* 6.30 to 6.60

*Q* // returns reported pEC50 for input O=C(CCC(F)(F)F)N1CC(c2ccc(F)nc2)C1
*A* 6.00 to 6.30

*Q* // returns reported pEC50 for input O=C(CCC(F)(F)F)N1CC(F)(c2ccc(F)cc2)C1
*A* > 7.30

*Q* // returns reported pEC50 for input O=C(CCC(F)(F)F)N1CC(N2CCC(F)(F)CC2)C1
*A* 6.00 to 6.30

*Q* // returns reported pEC50 for input O=C(CCC(F)(F)F)N1CC(c2ccc(OCC(F)(F)F)nc2)C1
*A* 6.30 to 6.60

*Q* // returns reported pEC50 for input CC(C)Oc1ccc(C2CN(C(=O)CCC(F)(F)F)C2)cn1
*A* 6.60 to 7.30

*Q* // returns reported pEC50 for input N#Cc1ccc(C2CN(C(=O)CCC(F)(F)F)C2)cc1
*A* 5.00 to 6.00

*Q* // returns reported pEC50 for input O=C(CCC(F)(F)F)N1CC(N2CCCCC2)C1
*A* 5.00 to 6.00

*Q* // returns reported pEC50 for input O=C(CCC(F)(F)F)N1CC(c2ccc(F)c(F)c2)C1
*A* > 7.30

---

Listed below: EC50 values for each entry.
Tested on: M. tuberculosis H37Rv-GFP
Format: cell-based, Mycobacterium tuberculosis
Test Settings: read-out: EC50_H37Rv

Some compounds with recorded EC50:
*Q* // returns reported EC50 for input O=C(CCC(F)(F)F)N1CC(c2cccc(OC(F)(F)F)c2)C1 [Example 15]
*A* < 50 nM

*Q* // returns reported EC50 for input O=C(CCC(F)(F)F)N1CC(c2ccc(F)cn2)C1 [Example 9]
*A* 50 to 250 nM

*Q* // returns reported EC50 for input O=C(CCC(F)(F)F)N1CC(c2ccc(Cl)nc2)C1 [Example 19]
*A* 250 to 500 nM

*Q* // returns reported EC50 for input CC1(c2ccc(F)cc2)CN(C(=O)CCC(F)(F)F)C1 [Example 42]
*A* < 50 nM

*Q* // returns reported EC50 for input O=C(CCCC(F)(F)F)N1CC(c2ccc(F)cc2)C1 [Example 3]
*A* < 50 nM

Further cases:
*Q* // returns reported EC50 for input O=C(CCC(F)(F)F)N1CC(c2ccc(Cl)cc2)C1 [Example 13]
*A* < 50 nM

*Q* // returns reported EC50 for input O=C(CCC(F)(F)F)N1CC(c2ccc(OC(F)(F)F)cc2)C1 [Example 14]
*A* < 50 nM

*Q* // returns reported EC50 for input O=C(CCC(F)(F)F)N1CC(C2CCOCC2)C1 [Example 38]
*A* 250 to 500 nM

*Q* // returns reported EC50 for input COC1(c2ccc(F)cc2)CN(C(=O)CCC(F)(F)F)C1 [Example 41]
*A* < 50 nM

*Q* // returns reported EC50 for input O=C(CCC(F)(F)F)N1CC(c2ccc(F)cc2Cl)C1 [Example 20]
*A* 50 to 250 nM

*Q* // returns reported EC50 for input O=C(CCC(F)(F)F)N1CC(c2ccc(C(F)(F)F)cc2)C1 [Example 16]
*A* 50 to 250 nM

*Q* // returns reported EC50 for input O=C(CCC(F)(F)F)N1CC(c2cccc(Cl)c2)C1 [Example 17]
*A* < 50 nM

---

System: M. tuberculosis H37Rv-GFP
Type: cell-based, Mycobacterium tuberculosis
Test Settings: read-out: EC50_H37Rv
Recorded Metric: EC50

Some compounds with recorded EC50:
*Q* // returns reported EC50 for input O=C(CCC(F)(F)F)N1CC(c2ccc(F)cc2F)C1
*A* < 50 nM

*Q* // returns reported EC50 for input O=C(CCC(F)(F)F)N1CC(c2cncc(Cl)c2)C1
*A* 250 to 500 nM

*Q* // returns reported EC50 for input O=C(CCC(F)(F)F)N1CC(c2cccc(C(F)(F)F)c2)C1
*A* < 50 nM

*Q* // returns reported EC50 for input O=C(CCC(F)(F)F)N1CC(c2cc(F)c(F)c(F)c2)C1
*A* < 50 nM

*Q* // returns reported EC50 for input O=C(CCC(F)(F)F)N1CC(c2ccc(C(F)(F)F)cn2)C1
*A* 250 to 500 nM

Further cases:
*Q* // returns reported EC50 for input O=C(CCC(F)(F)F)N1CC(c2ccc(C(F)(F)F)nc2)C1
*A* 1000 to 10000 nM

*Q* // returns reported EC50 for input O=C(CCC(F)(F)F)N1CC(c2ccc(F)cc2)C1
*A* < 50 nM

*Q* // returns reported EC50 for input O=C(CCC(F)(F)F)N1CC(c2cccnc2)C1
*A* 1000 to 10000 nM

*Q* // returns reported EC50 for input Cc1cc(F)ccc1C1CN(C(=O)CCC(F)(F)F)C1
*A* 50 to 250 nM

*Q* // returns reported EC50 for input O=C(CCC(F)(F)F)N1CC(c2cccc(F)c2)C1
*A* < 50 nM

---

Tested on: M. tuberculosis H37Rv-GFP
Format: cell-based, Mycobacterium tuberculosis
Test Settings: read-out: EC50_H37Rv
Listed below: EC50 values for each entry.

Some molecules with recorded EC50:
*Q* Form: Entry = O=C(CCC(F)(F)F)N1CC(c2ccc(F)cc2C(F)(F)F)C1 | System = M. tuberculosis H37Rv-GFP | EC50 = ____
*A* 0.05 to 0.25 µM

*Q* Form: Entry = O=C(CCC(F)(F)F)N1CC(C2CC2)C1 | System = M. tuberculosis H37Rv-GFP | EC50 = ____
*A* 0.25 to 0.5 µM

*Q* Form: Entry = O=C(CCC(F)(F)F)N1CC(c2cc(C(F)(F)F)ccn2)C1 | System = M. tuberculosis H37Rv-GFP | EC50 = ____
*A* 0.05 to 0.25 µM

*Q* Form: Entry = O=C(CCC(F)(F)F)N1CC(c2ccnc(C(F)(F)F)c2)C1 | System = M. tuberculosis H37Rv-GFP | EC50 = ____
*A* 0.25 to 0.5 µM

Further cases:
*Q* Form: Entry = O=C(CCC(F)(F)F)N1CC(c2cc(Cl)ccn2)C1 | System = M. tuberculosis H37Rv-GFP | EC50 = ____
*A* 0.05 to 0.25 µM
